// reported IC50 for each item listed
Biological target: KiSS-1 receptor (Rattus norvegicus)
Sequence (Q924U1 whole entry): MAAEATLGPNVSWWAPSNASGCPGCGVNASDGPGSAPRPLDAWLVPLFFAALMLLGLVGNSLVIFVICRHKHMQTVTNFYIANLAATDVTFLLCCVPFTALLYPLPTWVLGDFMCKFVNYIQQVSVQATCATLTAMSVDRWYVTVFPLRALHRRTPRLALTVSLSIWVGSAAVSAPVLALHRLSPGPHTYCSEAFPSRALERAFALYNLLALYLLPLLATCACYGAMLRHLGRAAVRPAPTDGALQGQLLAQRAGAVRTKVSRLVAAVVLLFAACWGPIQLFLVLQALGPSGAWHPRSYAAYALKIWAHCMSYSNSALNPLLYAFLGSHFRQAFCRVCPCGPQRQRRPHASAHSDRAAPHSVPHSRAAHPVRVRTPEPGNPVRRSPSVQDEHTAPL
Assay: Displacement of [125I]metastin from rat GPR54 receptor expressed in CHO cells
MEASURE_NAME: IC50 (nM)

{"columns": ["TEST_SMILES", "MEASURE_NAME", "REPORTED"],
 "data": [
  ["N#Cc1c(-c2cccc(NC(=O)C[C@H]3CCCN3)c2)cc(-c2ccc(F)cc2O)nc1NC(=O)c1ccco1", "IC50", 38],
  ["CNCCC(=O)Nc1cccc(-c2cc(-c3ccc(F)cc3O)nc(NC(=O)c3ccco3)c2C#N)c1", "IC50", 20],
  ["CN(C)CC(=O)Nc1cccc(-c2cc(-c3ccc(F)cc3O)nc(NC(=O)c3ccco3)c2C#N)c1", "IC50", 130],
  ["CNCC(=O)Nc1cccc(-c2cc(-c3ccc(F)cc3O)nc(NC(=O)c3ccco3)c2C#N)c1", "IC50", 26],
  ["CCN1CCN(c2cccc(-c3cc(-c4ccc(F)cc4O)nc(NC(=O)c4ccco4)c3C#N)c2)CC1", "IC50", 47],
  ["N#Cc1c(-c2cccc(NC(=O)C[C@@H]3CCCN3)c2)cc(-c2ccc(F)cc2O)nc1NC(=O)c1ccco1", "IC50", 26],
  ["N#Cc1c(-c2cccc(N3CCNCC3)c2)cc(-c2ccc(F)cc2O)nc1NC(=O)c1ccco1", "IC50", 15],
  ["CN(C)CCC(=O)Nc1cccc(-c2cc(-c3ccc(F)cc3O)nc(NC(=O)c3ccco3)c2C#N)c1", "IC50", 47]
]}
